# Tested on: Leishmania amazonensis
# protocol_description: Antileishmanial activity against leishmania amazonensis intracellular amastigotes assessed as parasite growth inhibition measured after 72 hrs by hematological dye based microscopic analysis
# Format: functional, organism-based
For each of the compounds below, state its pIC50.
One number for each entry, as −log10 of the molar value.

1) COC(=O)C1=C(c2ccc(/C(N)=N/O)cc2)OC(C)(Cc2ccccc2)C1 (configuration not stated) | 5.64

Data request: What does the record list as pIC50 for CCOC(=O)C1=C(c2ccc(/C(N)=N/O)cc2)OC(C)(Cc2ccccc2)C1 (configuration not stated) ?
Data returned: 5.89

====

# protocol_description: Cytotoxicity against mouse Peritoneal macrophage cell assessed as inhibition of cell viability incubated for 72 hrs by resazurin dye based analysis
# Assay type: toxicity
# condition_description: peritoneal macrophages
metric: CC50 at 72 h (µM)
Give bare numbers, in µM.

1) COC(=O)C1=C(c2ccc(/C(N)=N/O)cc2)OC(C)(Cc2ccccc2)C1 (configuration not stated) | 70.6

Attention now shifts to the item below.
Data request: What does the record list as CC50 at 72 h for CCOC(=O)C1=C(c2ccc(/C(N)=N/O)cc2)OC(C)(Cc2ccccc2)C1 (configuration not stated) ?
Data returned: 112

Data origin: ChEMBL document CHEMBL6074651
